Source listed as PubChem BioAssay (NCI).

System: MDA-MB-468 breast
assay_explanation: NCI-60 one-dose screen, 48 h (100 = growth as untreated, 0 = no growth, -100 = all killed)
measurement_parameters: 10 µM unless noted
Method: Growth inhibition of the MDA-MB-468 human Breast tumor cell line is measured as a screen for anti-cancer activity. Cells are grown in 96 well plates and exposed to the test compound for 48 hours. Compounds are tested at a single concentration, which is 10^-5 M for most compounds. The reported endpoint is percent growth (GI% or GIPRCNT), where numbers from 0 - 100% represent growth inhibition, and numbers from -100% - 0 represent cell death. […]
About 83,000 compounds went through this panel and 20% of them were active in at least one assay; those are over-represented in the sample as a whole.
readout_kind: growth (%)
Give the value in % but do not write % after it.

[ask] Fill in the blank: the reported growth of COc1ccc(-c2nn(-c3cccc(NC(=O)c4ccc(N5CCOCC5)c(C(F)(F)F)c4)c3)cc2-c2ccncc2)cc1Cl is ____.
[reply] 80.6

[ask] Which growth value belongs to COc1cc(-c2nn(-c3ccc(NC(=O)c4ccc(Cl)c(Cl)c4)cc3)cc2-c2ccncc2)ccc1Cl ?
[reply] 78.3

[ask] So what does the record say about growth for C[C@H](NC(=O)[C@@H](C)N)[C@H](Oc1ccc2c(cnn2-c2ccc(F)cc2)c1)c1ccc2c(c1)OCCO2 ?
[reply] 37.7

[ask] growth for CCOc1cccc(NC2=C(Br)C(=O)C(C)=C(C)C2=O)c1 ?
[reply] -65.7
